System under test: Induced myeloid leukemia cell differentiation protein Mcl-1 (Homo sapiens) (UniProt Q07820)
Sequence (Q07820 whole entry, looked up): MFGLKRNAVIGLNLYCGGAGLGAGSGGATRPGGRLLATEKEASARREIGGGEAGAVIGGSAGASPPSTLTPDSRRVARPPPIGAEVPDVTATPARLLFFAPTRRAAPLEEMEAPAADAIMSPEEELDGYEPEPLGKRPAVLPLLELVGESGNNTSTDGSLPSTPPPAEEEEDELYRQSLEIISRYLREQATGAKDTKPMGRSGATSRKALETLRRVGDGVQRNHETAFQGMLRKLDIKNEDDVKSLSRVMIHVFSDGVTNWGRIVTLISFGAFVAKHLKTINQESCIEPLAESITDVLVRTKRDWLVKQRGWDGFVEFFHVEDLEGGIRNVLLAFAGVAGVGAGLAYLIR
Protocol details: Mcl-1/Noxa binding inhibitor potency, dose response, biochemical, TR-FRET (AID 1417)
Condition context: Mcl-1/Noxa peptide interaction, cell-free TR-FRET (terbium/rhodamine), 2 h; measured here: absolute IC50
Recorded endpoint: IC50 (µM)
The reply should contain only the number, in µM.

See these solved cases before continuing.
> print(dat)
                               input.smiles  observed
1  C=CCc1cccc2cc(C(=O)Nc3ccc(S(=O)(=O)Nc4nnc(CC)s4)cc3)c(=O)oc12      1.54
2  O=C1NN(c2ccc(Cl)cc2)C(=O)/C1=C\c1ccc(-c2cccc(C(=O)O)c2)o1     0.894
3     Cc1ccc(OCC(=O)Nc2ccc(N3CCCC3)cc2)cc1C      7.07

Now look at this entry.
Query: For the molecule shown here, Cc1ccc(N=C2NC(=O)S/C2=C\c2ccco2)cc1 , give the reported IC50.
Response: 8.57

====

System under test: Induced myeloid leukemia cell differentiation protein Mcl-1 (Homo sapiens) (UniProt Q07820)
Protocol details: Mcl-1/Noxa binding inhibitor potency, dose response, biochemical, TR-FRET (AID 1417)
Condition context: Mcl-1/Noxa peptide interaction, cell-free TR-FRET (terbium/rhodamine), 2 h; measured here: absolute IC50
Recorded endpoint: IC50 (µM)
Use µM as the unit, but write only the number.

Example entries begin here.
> print(dat)
                               input.smiles  observed
1  CCCSC1=N/C(=C\c2ccc([N+](=O)[O-])o2)C(=O)S1      3.01
2        O=C(Nc1ccc2nc3ccccc3nc2c1)c1ccccc1      29.6
3   CCNC(=O)COC(=O)c1cc(-c2ccco2)nc2ccccc12      1.81

Query: So what's the measured IC50 for this one? NC(=S)n1[nH]c(-c2ccc([N+](=O)[O-])cc2)c(N=Nc2ccc(O)cc2)c1=O
Response: 3.13

Query: Reported IC50 for CNc1ccc(Br)cc(C(=O)/C=C/c2cc(OC)ccc2OC)c1=O : what is it?
Response: 1.73

====

IC50: recorded values
System under test: Induced myeloid leukemia cell differentiation protein Mcl-1 (Homo sapiens)
Protocol details: Mcl-1/Noxa binding inhibitor potency, dose response, biochemical, TR-FRET (AID 1417)
Condition context: Mcl-1/Noxa peptide interaction, cell-free TR-FRET (terbium/rhodamine), 2 h; measured here: absolute IC50
Supply the numeric figure in nM, leaving out any unit text.

A selection of reference data follows.
> print(dat)
                                   molecule  recorded.endpoint  observed
1  C/C(=N/NC(=O)c1cc2ccccc2cc1O)C1C(=O)c2ccccc2C1=O               IC50       919
2  CCOC(=O)C1CCN(C(=O)Nc2ccc3nc(-c4ccco4)c(-c4ccco4)nc3c2)CC1               IC50       932
3  CC1CCN(C(c2ccc(N(C)C)cc2)c2nnnn2C(C)(C)C)CC1 (stereo unspecified)               IC50     12500

Query: If you can, please state the reported IC50 value of O=C1/C(=C/C=C/c2ccco2)SC(=S)N1NS(=O)(=O)c1ccccc1 .
Response: 1410

Query: What value of IC50 has been recorded for this entry: Nc1cc2nc[nH]c2cc1N
Response: 52800

Query: Fill blank: measured IC50 of the molecule O=C(CCN1C(=O)S/C(=C\c2ccccc2)C1=O)Nc1ccc(S(=O)(=O)Nc2nccs2)cc1 is ____.
Response: 7650
